Recorded values, source patent US8865230B2.

- measurement target: Tyramine receptor (TyrR) (Drosophila melanogaster, UniProt P22270)
- Construct: expressed in transfected cells
- assay notes: Effect on intracellular cAMP in cells expressing TyrR (Example 14)
- Type: cell-based

compound: CCC(=O)OCCc1ccccc1 [phenethyl proprionate]
Effects Intracellular cAMP (Yes or No): Yes

compound: CCC(C)(O)CCCC(C)C (stereo not shown) [tetrahydrolinalool]
Effects Intracellular cAMP (Yes or No): Yes

compound: CC1=CCC2CC1C2(C)C (stereo not drawn) [α-pinene]
Effects Intracellular cAMP (Yes or No): No

compound: CC=Cc1ccc(OC)cc1 [anethole]
Effects Intracellular cAMP (Yes or No): Yes

compound: CCCCCCCCCCCCOS(=O)(=O)[O-].[Na+] [sodium lauryl sulfate]
Effects Intracellular cAMP (Yes or No): No

compound: C=CC(C)(O)CCC=C(C)C (stereo not shown) [linalool]
Effects Intracellular cAMP (Yes or No): No

compound: OCc1ccccc1 [benzyl alcohol]
Effects Intracellular cAMP (Yes or No): Yes

compound: CC(C)=CCC/C(C)=C/CO [Rx 5, geraniol]
Effects Intracellular cAMP (Yes or No): Yes

compound: OCC=Cc1ccccc1 [cinnamyl alcohol]
Effects Intracellular cAMP (Yes or No): No

compound: Cc1ccc(C(C)C)c(O)c1 [thymol]
Effects Intracellular cAMP (Yes or No): No

compound: C=CCc1ccc(O)c(OC)c1 [Eugenol]
Effects Intracellular cAMP (Yes or No): No

compound: CC12CCC(CC1)C(C)(C)O2 [Rx 6, cineol]
Effects Intracellular cAMP (Yes or No): Yes

compound: Cc1ccc(C(C)C)cc1 [p-cymene]
Effects Intracellular cAMP (Yes or No): Yes

====

- measurement target: Tyramine receptor (TyrR) (Drosophila melanogaster, UniProt P22270)
- Construct: expressed in transfected cells
- Sequence (P22270 27-601): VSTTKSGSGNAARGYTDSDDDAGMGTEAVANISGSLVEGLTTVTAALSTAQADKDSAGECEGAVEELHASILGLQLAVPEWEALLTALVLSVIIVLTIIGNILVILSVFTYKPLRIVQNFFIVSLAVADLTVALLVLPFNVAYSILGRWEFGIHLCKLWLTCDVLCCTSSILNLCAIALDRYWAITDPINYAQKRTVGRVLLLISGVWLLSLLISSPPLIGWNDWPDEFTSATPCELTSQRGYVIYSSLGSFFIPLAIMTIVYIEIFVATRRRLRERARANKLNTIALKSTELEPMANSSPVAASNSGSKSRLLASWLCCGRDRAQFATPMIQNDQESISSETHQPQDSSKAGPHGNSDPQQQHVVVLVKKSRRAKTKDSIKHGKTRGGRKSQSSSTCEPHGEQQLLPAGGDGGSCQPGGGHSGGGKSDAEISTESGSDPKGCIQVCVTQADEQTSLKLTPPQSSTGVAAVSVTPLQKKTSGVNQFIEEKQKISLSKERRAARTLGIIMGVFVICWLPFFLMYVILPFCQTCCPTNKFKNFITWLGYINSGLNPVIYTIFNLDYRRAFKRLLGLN
- assay notes: Tyramine receptor binding affinity in cells expressing TyrR (Example 14)
parameter measured: Tyramine Receptor Binding Affinity (High or Low)

molecule: CC=Cc1ccc(OC)cc1
reported: Low
--
molecule: Cc1ccc(C(C)C)c(O)c1
reported: high
--
molecule: C=CC(C)(O)CCC=C(C)C (stereo not shown)
reported: high
--
molecule: Cc1ccc(C(C)C)cc1
reported: low
